Origin of values: the supplement of paper PMC13380429

Tested on: Vero E6 infected with SARS-CoV-2
TEST PROTOCOL: inhibition of SARS-CoV-2 cytopathic effect; higher = more antiviral protection, active = above 15
CONDITION INFO: 100 nM; 48 h
# key: entry, value: inhibition of SARS-CoV-2 cytopathic effect
Lab book: enter the figure in %, no units written.

Consider the following illustrative entries.
                                   molecule  unit_descriptor  quantitative_readout
0  CC(C)(C)CCN1C[C@@H]2[C@@H](CNC(=O)c3cc(Cl)cc(Cl)c3)[C@@H]2C1                %                  1.76
1  C=C(c1ccc(C(=O)O)cc1)c1cc2c(cc1C)C(C)(C)CCC2(C)C [bexarotene]                %                  0.42
2  CN1C(=O)C[C@@H](C(=O)N[C@@H](Cc2c[nH]cn2)C(=O)N2CCC[C@H]2C(N)=O)NC1=O [taltirelin]                %                     3

Readout inhibition of SARS-CoV-2 cytopathic effect for Oc1ccc(OCc2ccccc2)cc1 [monobenzone] , test system Vero E6 infected with SARS-CoV-2, was -0.07

Readout inhibition of SARS-CoV-2 cytopathic effect for O=c1ccc2ccc(OCCCCN3CCN(c4cccc5sccc45)CC3)cc2[nH]1 [brexpiprazole] , test system Vero E6 infected with SARS-CoV-2, was 2.49

Readout inhibition of SARS-CoV-2 cytopathic effect for CCCN(CCC)[C@H]1CCc2cccc(O)c2C1 [8-hydroxy-DPAT] , test system Vero E6 infected with SARS-CoV-2, was 1.06

Readout inhibition of SARS-CoV-2 cytopathic effect for CN(C)c1ccc(/C=C2\CCCN=C2c2cccnc2)cc1 [DMAB-anabaseine] , test system Vero E6 infected with SARS-CoV-2, was 0.68

Readout inhibition of SARS-CoV-2 cytopathic effect for O=C1[O][SbH]23[O]C(=O)C([O]2)C2[O][SbH]4([O]C(=O)C([O]4)C1[O]3)[O]C2=O [antimonyl] , test system Vero E6 infected with SARS-CoV-2, was -2.02

###

Tested on: Vero E6 infected with SARS-CoV-2
TEST PROTOCOL: inhibition of SARS-CoV-2 cytopathic effect; higher = more antiviral protection, active = above 15
CONDITION INFO: 100 nM; 48 h
REPORTED ENDPOINT: inhibition of SARS-CoV-2 cytopathic effect (%)
Lab book: enter the figure in %, no units written.

Consider the following illustrative entries.
In [3]: df
Out[3]:
                                     smiles  unit_descriptor  quantitative_readout
0                   O=C(O)CCCNC(=O)c1cccnc1                %                 -0.01
1          c1cnc(NCc2ccc(CNc3ncccn3)cc2)nc1                %                 -0.65
2  C[C@]12C[C@H](O)[C@H]3[C@@H](CCC4=CC(=O)CC[C@@]43C)[C@@H]1CC[C@@H]2C(=O)CO                %                  0.56
3  CC[C@@H]1C(=O)N(C)c2cnc(Nc3ccc(C(=O)N[C@H]4CC[C@H](N5CCN(CC6CC6)CC5)CC4)cc3OC)nc2N1C(C)C                %                 -0.02
4      COc1ccc2nc3[nH]nc(C)c3c(NCCOCCO)c2c1                %                 -3.28

// sample "O=C(O)C1=CCCN(CCOC(c2ccc(C(F)(F)F)cc2)c2ccc(C(F)(F)F)cc2)C1" , its inhibition of SARS-CoV-2 cytopathic effect was -2.81

// sample "CC(C)C[C@@H](NC(=O)[C@H](Cc1ccccc1)NC(=O)CNC(=O)[C@@H](C)NC(=O)[C@@H](N)Cc1ccc(O)cc1)C(=O)O" , its inhibition of SARS-CoV-2 cytopathic effect was 1.72

// sample "CCc1nc(C(N)=O)c(Nc2ccc(N3CCC(N4CCN(C)CC4)CC3)c(OC)c2)nc1NC1CCOCC1" , its inhibition of SARS-CoV-2 cytopathic effect was -2.49
